test: self-splicing fitness, log relative to wild type (ln ratio); higher = more splicing; Tetrahymena group I intron in knt gene, E. coli kanamycin selection, DiMSum; sequences stand for … in CUCUCU…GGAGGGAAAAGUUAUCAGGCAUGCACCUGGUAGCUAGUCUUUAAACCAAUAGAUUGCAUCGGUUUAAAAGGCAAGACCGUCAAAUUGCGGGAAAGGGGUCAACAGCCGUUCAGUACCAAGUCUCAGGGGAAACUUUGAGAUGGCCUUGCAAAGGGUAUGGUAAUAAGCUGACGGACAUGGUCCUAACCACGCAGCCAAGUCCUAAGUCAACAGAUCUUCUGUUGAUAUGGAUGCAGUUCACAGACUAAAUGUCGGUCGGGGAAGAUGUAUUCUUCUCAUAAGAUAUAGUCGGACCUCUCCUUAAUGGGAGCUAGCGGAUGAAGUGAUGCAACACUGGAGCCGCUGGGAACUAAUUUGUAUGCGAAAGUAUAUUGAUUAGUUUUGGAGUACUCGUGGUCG; settings: 30 °C;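 further: selection with 25 µg/mL kanamycin versus none on LB agar overnight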
Give measured self-splicing fitness (ln) for each item. Keep answers brief.
Numbers only.

Examples from the recorded data:
UGGCAGCAAUAUUACGUCAU :: -4.47
AAAAAGCAAUAUUACGUGAC :: -2.84
CUGAAGCAAUAUUACGUCUU :: -3.7
UCCUAGCAAUAUUACGAGCG :: -1.5

Would you mind listing self-splicing fitness (ln) for each of the following sequences?
1. UCUGAGCAAUAUUACGCUUG
2. GCCAAGCAAUAUUACGGCGG
3. AUACAGCAAUAUUACGGAGG
4. UAAUAGCAAUAUUACGUCCA
5. CACAAGCAAUAUUACGGAGU
6. UCGAAGCAAUAUUACGUCCA

[-4.34, -3.3, -3.46, -0.695, -3.2, -1.08]
